target: UniProtKB P05177; assay: C152 metabolism; assay type: in vitro ADME; settings: read-out: KM or S50 (C152 metabolism, fluorimetric assay); SS(1A2); Michaelis-Menten fit; 30 °C, pH 7.4
parameter measured: Km (µM)
Use µM as the unit, but write only the number.

Dear colleague, I am looking for the recorded Km of the following compound: CN(C)c1ccc2c(C(F)(F)F)cc(=O)oc2c1 2.9

---

biological target: CYP2B6 (Homo sapiens); assay: C152 metabolism; format: in vitro ADME; settings: read-out: KM or S50 (C152 metabolism, fluorimetric assay); SS(2B6); Michaelis-Menten fit; 30 °C, pH 7.4
parameter measured: Km (µM)
Numbers only; they are read as µM.

Please look up its Km: CN(C)c1ccc2c(C(F)(F)F)cc(=O)oc2c1 1.8

---

target: CYP2C9 (Homo sapiens); test: C152 metabolism; type: in vitro ADME; conditions: read-out: KM or S50 (C152 metabolism, fluorimetric assay); SS(2C9); Michaelis-Menten fit; 30 °C, pH 7.4
Sequence (P11712 whole entry): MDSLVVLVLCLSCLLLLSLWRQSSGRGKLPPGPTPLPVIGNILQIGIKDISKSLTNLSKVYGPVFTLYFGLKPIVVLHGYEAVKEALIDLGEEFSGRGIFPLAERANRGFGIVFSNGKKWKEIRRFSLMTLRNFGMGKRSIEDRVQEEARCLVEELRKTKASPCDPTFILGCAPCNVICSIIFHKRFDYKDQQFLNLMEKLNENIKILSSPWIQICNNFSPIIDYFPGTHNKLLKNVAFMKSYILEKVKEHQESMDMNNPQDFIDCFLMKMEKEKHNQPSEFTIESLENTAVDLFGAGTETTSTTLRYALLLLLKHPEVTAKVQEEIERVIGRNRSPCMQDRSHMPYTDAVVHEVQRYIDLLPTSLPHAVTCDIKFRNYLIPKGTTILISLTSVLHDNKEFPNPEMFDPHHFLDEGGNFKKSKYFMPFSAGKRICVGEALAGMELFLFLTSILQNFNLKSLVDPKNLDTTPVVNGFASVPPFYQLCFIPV
parameter measured: Km (µM)
Expressed in µM, but write only the number.

Request the reported Km associated with CN(C)c1ccc2c(C(F)(F)F)cc(=O)oc2c1 [C152, 7-Dimethylamino-4-trifluromethylcoumarin] 29

---

target: UniProt:P10632; assay: C152 metabolism; format: in vitro ADME; details: read-out: KM or S50 (C152 metabolism, fluorimetric assay); SS(2C8); Hill fit (S50); 30 °C, pH 7.4
Sequence (P10632 whole entry): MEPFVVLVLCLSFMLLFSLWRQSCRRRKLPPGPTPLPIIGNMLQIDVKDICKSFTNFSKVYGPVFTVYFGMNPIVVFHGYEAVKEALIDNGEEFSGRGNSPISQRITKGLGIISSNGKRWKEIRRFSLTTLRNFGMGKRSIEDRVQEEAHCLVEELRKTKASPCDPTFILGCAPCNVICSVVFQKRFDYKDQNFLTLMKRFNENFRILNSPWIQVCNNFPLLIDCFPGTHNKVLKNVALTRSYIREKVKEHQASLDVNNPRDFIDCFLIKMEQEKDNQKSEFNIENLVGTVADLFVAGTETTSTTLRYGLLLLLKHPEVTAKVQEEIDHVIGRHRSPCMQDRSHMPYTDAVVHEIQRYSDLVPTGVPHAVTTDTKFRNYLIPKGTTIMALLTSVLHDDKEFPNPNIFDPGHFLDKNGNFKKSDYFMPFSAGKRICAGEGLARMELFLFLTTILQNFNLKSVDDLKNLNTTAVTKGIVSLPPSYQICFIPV
parameter measured: Km (µM)
Please give a number only; it is taken to be in µM.

Tell me the measured Km of CN(C)c1ccc2c(C(F)(F)F)cc(=O)oc2c1 , please. 12

---

Molecular target: CYP1A2 (Homo sapiens)
Sequence (P05177 2-516 limits assumed): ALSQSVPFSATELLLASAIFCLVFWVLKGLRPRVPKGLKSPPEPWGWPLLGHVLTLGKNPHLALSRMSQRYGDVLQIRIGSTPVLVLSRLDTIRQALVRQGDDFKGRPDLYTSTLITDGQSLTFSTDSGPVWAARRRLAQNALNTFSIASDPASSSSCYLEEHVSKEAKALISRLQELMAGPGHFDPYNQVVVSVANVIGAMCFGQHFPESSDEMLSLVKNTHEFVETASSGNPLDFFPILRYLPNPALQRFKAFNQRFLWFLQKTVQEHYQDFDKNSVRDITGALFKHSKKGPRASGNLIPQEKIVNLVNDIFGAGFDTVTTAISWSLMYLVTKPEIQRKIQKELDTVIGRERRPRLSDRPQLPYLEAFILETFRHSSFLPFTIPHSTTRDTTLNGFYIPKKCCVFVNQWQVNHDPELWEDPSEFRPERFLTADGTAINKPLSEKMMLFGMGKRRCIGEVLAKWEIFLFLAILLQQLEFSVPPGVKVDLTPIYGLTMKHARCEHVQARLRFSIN
Assay: Formation of C151 from C152
Assay type: in vitro ADME
Conditions: read-out: KM or S50 (Formation of C151, LC-MS); SS(1A2); Michaelis-Menten fit
parameter measured: Km (µM)
Number in µM, nothing else.

Field request: Km | item: CN(C)c1ccc2c(C(F)(F)F)cc(=O)oc2c1 1.7

---

biological target: CYP3A4 (Homo sapiens, UniProt P08684); experiment: C152 metabolism; type: in vitro ADME; details: read-out: KM or S50 (C152 metabolism, fluorimetric assay); SS(3A4); Hill fit (S50); 30 °C, pH 7.4
Sequence (P08684 2-503 limits assumed): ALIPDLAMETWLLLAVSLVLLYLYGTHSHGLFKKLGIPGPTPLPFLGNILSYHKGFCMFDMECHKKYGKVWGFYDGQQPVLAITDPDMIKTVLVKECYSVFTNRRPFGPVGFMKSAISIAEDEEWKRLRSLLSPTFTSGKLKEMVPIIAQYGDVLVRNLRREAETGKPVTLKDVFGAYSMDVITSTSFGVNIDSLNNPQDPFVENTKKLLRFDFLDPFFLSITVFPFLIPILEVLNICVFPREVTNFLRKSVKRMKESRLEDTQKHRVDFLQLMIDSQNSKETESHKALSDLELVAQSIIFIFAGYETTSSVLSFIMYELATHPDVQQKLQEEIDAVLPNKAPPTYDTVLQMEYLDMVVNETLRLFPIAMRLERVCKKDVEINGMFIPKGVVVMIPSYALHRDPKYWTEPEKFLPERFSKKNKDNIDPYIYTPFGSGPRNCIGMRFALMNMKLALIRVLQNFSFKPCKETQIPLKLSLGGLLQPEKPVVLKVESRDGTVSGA
parameter measured: Km (µM)
Quick reminder: number only, in µM, skip the unit.

Find the measured Km: item CN(C)c1ccc2c(C(F)(F)F)cc(=O)oc2c1 , target or system CYP3A4 (Homo sapiens, UniProt P08684). 4.5

---

Field: pIC50. Provide a value for each of the molecules that follow.
target: CYP2B6 (Homo sapiens); assay: Inhibition of C152 metabolism, SS
The quantity pIC50 is defined as the negative base-10 logarithm of the molar concentration.

pIC50 for CC(=O)N1CCN(c2ccc(OCC3COC(Cn4ccnc4)(c4ccc(Cl)cc4Cl)O3)cc2)CC1 (centres unmarked) ? 5.02

What measured pIC50 goes with Clc1ccc(Cc2ccncc2)cc1 ? 7.42

---

target: CYP3A5 (Homo sapiens, UniProt P20815); assay: C152 metabolism; assay type: in vitro ADME; details: read-out: KM or S50 (C152 metabolism, fluorimetric assay); SS(3A5); Michaelis-Menten fit; 30 °C, pH 7.4
Sequence (P20815 whole entry): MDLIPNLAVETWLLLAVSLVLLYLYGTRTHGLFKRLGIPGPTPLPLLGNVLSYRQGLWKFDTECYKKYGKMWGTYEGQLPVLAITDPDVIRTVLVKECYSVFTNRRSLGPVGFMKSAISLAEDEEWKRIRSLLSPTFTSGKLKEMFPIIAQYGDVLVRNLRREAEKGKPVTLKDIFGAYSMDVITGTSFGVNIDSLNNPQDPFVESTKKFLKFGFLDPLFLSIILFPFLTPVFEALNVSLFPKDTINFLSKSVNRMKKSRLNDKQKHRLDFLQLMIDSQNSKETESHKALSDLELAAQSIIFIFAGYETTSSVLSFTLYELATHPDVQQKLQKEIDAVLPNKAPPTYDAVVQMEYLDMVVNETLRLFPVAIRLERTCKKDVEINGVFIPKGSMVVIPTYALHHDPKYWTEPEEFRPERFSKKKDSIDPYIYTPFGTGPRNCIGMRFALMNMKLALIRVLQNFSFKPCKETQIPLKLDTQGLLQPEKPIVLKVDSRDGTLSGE
parameter measured: Km (µM)
Write the answer as a number in µM, unit excluded.

Which value of Km has been reported for CN(C)c1ccc2c(C(F)(F)F)cc(=O)oc2c1 in the records? 19

---

target: CYP3A4 (Homo sapiens, UniProt P08684); assay: Formation of C151 from C152; format: in vitro ADME; conditions: read-out: KM or S50 (Formation of C151, LC-MS); SS(3A4); Hill fit (S50)
parameter measured: Km (µM)
Report as a plain number; the unit µM is understood.

Find the recorded Km belonging to CN(C)c1ccc2c(C(F)(F)F)cc(=O)oc2c1 and report it. 6.4

---

target: CYP2C19 (Homo sapiens, UniProt P33261); assay: C152 metabolism; format: in vitro ADME; conditions: read-out: KM or S50 (C152 metabolism, fluorimetric assay); SS(2C19); Michaelis-Menten fit; 30 °C, pH 7.4
Sequence (P33261 whole entry): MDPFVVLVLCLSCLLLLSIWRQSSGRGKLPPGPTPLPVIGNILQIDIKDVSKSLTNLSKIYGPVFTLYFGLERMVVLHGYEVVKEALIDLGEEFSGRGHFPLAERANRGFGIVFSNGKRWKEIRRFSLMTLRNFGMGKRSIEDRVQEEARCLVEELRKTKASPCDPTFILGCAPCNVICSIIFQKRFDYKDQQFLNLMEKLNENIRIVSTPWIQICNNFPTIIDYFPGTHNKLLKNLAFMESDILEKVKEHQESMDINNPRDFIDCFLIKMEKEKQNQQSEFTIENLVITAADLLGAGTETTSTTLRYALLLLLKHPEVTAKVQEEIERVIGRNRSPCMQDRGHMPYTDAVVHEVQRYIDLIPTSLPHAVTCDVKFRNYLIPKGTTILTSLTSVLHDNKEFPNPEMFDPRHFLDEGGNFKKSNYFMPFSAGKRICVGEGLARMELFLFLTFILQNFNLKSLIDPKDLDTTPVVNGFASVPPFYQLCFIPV
parameter measured: Km
Express the reported value numerically, then name its unit.

Please give the measured Km for this molecule: CN(C)c1ccc2c(C(F)(F)F)cc(=O)oc2c1 5.7 µM

---

target: CYP3A4 (Homo sapiens); assay: Inhibition of C152 metabolism, SS
parameter measured: IC50

Entry Clc1ccc(Cc2ccncc2)cc1 [CBP, 4-(4-Chlorobenzyl)pyridine] : reported IC50 = ? 225 µM

---

molecular target: CYP2B6 (Homo sapiens, UniProt P20813); test: Inhibition of C152 metabolism, SS; conditions: SS(2B6); 30 μM C152 as substrate
Sequence (P20813 whole entry): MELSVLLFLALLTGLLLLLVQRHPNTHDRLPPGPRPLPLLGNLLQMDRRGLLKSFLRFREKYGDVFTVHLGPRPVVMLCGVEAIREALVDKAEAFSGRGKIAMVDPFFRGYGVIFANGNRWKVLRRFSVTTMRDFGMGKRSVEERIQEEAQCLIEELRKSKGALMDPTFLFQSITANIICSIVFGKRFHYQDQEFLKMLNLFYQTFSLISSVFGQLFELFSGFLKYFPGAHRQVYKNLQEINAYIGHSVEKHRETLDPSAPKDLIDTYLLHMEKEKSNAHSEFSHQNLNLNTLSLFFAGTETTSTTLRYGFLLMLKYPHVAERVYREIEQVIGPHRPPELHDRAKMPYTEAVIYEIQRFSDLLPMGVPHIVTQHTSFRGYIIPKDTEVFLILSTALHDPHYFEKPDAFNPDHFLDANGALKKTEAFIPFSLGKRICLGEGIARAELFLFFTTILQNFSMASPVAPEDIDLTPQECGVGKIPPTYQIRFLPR
parameter measured: IC50 (µM)
Answer in µM, number only, no unit symbol.

Return IC50 measured with CYP2B6 (Homo sapiens, UniProt P20813) given this molecule: CC[C@@]1(c2ccccc2)NC(=O)N(Cc2ccccc2)C1=O [BNVL, (S)-(+)-N-3-benzylnirvanol] 8.5
